- Test system: PC-3 [JPC-3]
- assay_summary: relative viability (nuclei count vs DMSO), 5 days (fraction); higher = more cells survive
- settings: first compound 0.253 µM
measurement_type: relative viability
Could you respond with only the numeric value?

Qu. Please look at this molecule and report its relative viability: COc1nc(C)cnc1NS(=O)(=O)c1cccnc1-c1ccc(-c2nnco2)cc1 [Zibotentan] + Cc1nc(Nc2ncc(C(=O)Nc3c(C)cccc3Cl)s2)cc(N2CCN(CCO)CC2)n1 [Dasatinib] (partner 0.075 µM)
Ans. 1.02

Qu. Note relative viability for the molecule shown: O=c1cc(-c2cccc3c2Sc2ccccc2S3)oc(N2CCOCC2)c1 + CS(=O)(=O)N1CCN(Cc2cc3nc(-c4cccc5[nH]ncc45)nc(N4CCOCC4)c3s2)CC1 [Pictilisib] (partner 1 µM)
Ans. 0.761

Qu. Determine from records and report relative viability for COc1nc(C)cnc1NS(=O)(=O)c1cccnc1-c1ccc(-c2nnco2)cc1 [Zibotentan] + Cc1cc(Nc2cc(N3CCN(C)CC3)nc(Sc3ccc(NC(=O)C4CC4)cc3)n2)n[nH]1 [Tozasertib] (partner 0.1 µM)
Ans. 0.903

Qu. Tell me relative viability reported for COc1nc(C)cnc1NS(=O)(=O)c1cccnc1-c1ccc(-c2nnco2)cc1 [Zibotentan] + CC(=O)c1c(C)c2cnc(Nc3ccc(N4CCNCC4)cn3)nc2n(C2CCCC2)c1=O [Palbociclib] (partner 0.5 µM)
Ans. 0.548

Qu. Give the reported relative viability for this molecule. O=c1cc(-c2cccc3c2Sc2ccccc2S3)oc(N2CCOCC2)c1 + COc1cccc2cc(-c3nc([C@H]4CC[C@H](C(=O)O)CC4)n4ncnc(N)c34)[nH]c12 [OSI-027] (partner 0.5 µM)
Ans. 0.8

Qu. Supply reported relative viability belonging to this molecule: O=c1cc(-c2cccc3c2Sc2ccccc2S3)oc(N2CCOCC2)c1 + CC(=O)c1c(C)c2cnc(Nc3ccc(N4CCNCC4)cn3)nc2n(C2CCCC2)c1=O [Palbociclib] (partner 0.5 µM)
Ans. 0.54

Qu. Item O=c1cc(-c2cccc3c2Sc2ccccc2S3)oc(N2CCOCC2)c1 + O=C(CCCCCCC(=O)Nc1ccccc1)NO [Vorinostat] (partner 1 µM) : provide relative viability
Ans. 0.788

Qu. Note relative viability for the molecule shown: O=c1cc(-c2cccc3c2Sc2ccccc2S3)oc(N2CCOCC2)c1 + COc1cc2c(Oc3ccc(NC(=O)C4(C(=O)Nc5ccc(F)cc5)CC4)cc3F)ccnc2cc1OCCCN1CCOCC1 [Foretinib] (partner 0.25 µM)
Ans. 1.08

Qu. Identify the reported relative viability for the following entry. COc1nc(C)cnc1NS(=O)(=O)c1cccnc1-c1ccc(-c2nnco2)cc1 [Zibotentan] + CC(=O)Nc1cccc(-n2c(=O)n(C3CC3)c(=O)c3c(Nc4ccc(I)cc4F)n(C)c(=O)c(C)c32)c1 [Trametinib] (partner 0.02 µM)
Ans. 0.508

Qu. Please give measured relative viability of the following entry: O=c1cc(-c2cccc3c2Sc2ccccc2S3)oc(N2CCOCC2)c1 + CCNC(=O)c1noc(-c2cc(C(C)C)c(O)cc2O)c1-c1ccc(CN2CCOCC2)cc1 [Luminespib] (partner 0.01 µM)
Ans. 0.765

Qu. # return recorded relative viability for entry O=c1cc(-c2cccc3c2Sc2ccccc2S3)oc(N2CCOCC2)c1 + C[C@]1(O)C[C@@H](c2nc(-c3ccc4ccc(-c5ccccc5)nc4c3)c3c(N)nccn32)C1 [Linsitinib] (partner 1 µM)
Ans. 1.03

Qu. In one line, give reported relative viability of the entry O=c1cc(-c2cccc3c2Sc2ccccc2S3)oc(N2CCOCC2)c1 + Cc1cc(Nc2cc(N3CCN(C)CC3)nc(Sc3ccc(NC(=O)C4CC4)cc3)n2)n[nH]1 [Tozasertib] (partner 0.1 µM) .
Ans. 0.871

----------
- System: EKVX
- assay_summary: relative viability (nuclei count vs DMSO), 5 days (fraction); higher = more cells survive
- settings: first compound 2 µM
measurement_type: relative viability

Illustrative cases are given below, each with its answer.
- COCC1(CO)C(=O)C2CCN1CC2 (centres undefined) [PRIMA-1MET] + O=C(CCCCCCC(=O)Nc1ccccc1)NO [Vorinostat] (partner 1 µM): 0.672
- COCC1(CO)C(=O)C2CCN1CC2 (centres undefined) [PRIMA-1MET] + CS(=O)(=O)N1CCN(Cc2cc3nc(-c4cccc5[nH]ncc45)nc(N4CCOCC4)c3s2)CC1 [Pictilisib] (partner 1 µM): 0.328
- COCC1(CO)C(=O)C2CCN1CC2 (centres undefined) [PRIMA-1MET] + CC(C)C[C@H](NC(=O)[C@H](Cc1ccccc1)NC(=O)c1cnccn1)B(O)O [Bortezomib] (partner 0.002 µM): 0.943

Query compound follows.
Qu. Determine its reported relative viability: COCC1(CO)C(=O)C2CCN1CC2 (centres undefined) [PRIMA-1MET] + Cc1nc(NC(=O)N2CCC[C@H]2C(N)=O)sc1-c1ccnc(C(C)(C)C(F)(F)F)c1 [Alpelisib] (partner 2 µM)
Ans. 0.638

----------
- Tested on: NCI-H2347
- assay_summary: relative viability (nuclei count vs DMSO), 5 days (fraction); higher = more cells survive
- settings: first compound 0.2 µM
Here, each record is paired with measured relative viability data.
Answer field: number only, no words.

Consider the worked cases shown below.
* COCC1(CO)C(=O)C2CCN1CC2 (configuration not stated) [PRIMA-1MET] + C[C@]1(O)C[C@@H](c2nc(-c3ccc4ccc(-c5ccccc5)nc4c3)c3c(N)nccn32)C1 [Linsitinib] (partner 1 µM) | 1.02
* COCC1(CO)C(=O)C2CCN1CC2 (configuration not stated) [PRIMA-1MET] + N=C(N)NC(=N)NCCc1ccccc1 [Phenformin] (partner 250 µM) | 0.265

Qu. Please supply the value of reported relative viability for the item COCC1(CO)C(=O)C2CCN1CC2 (configuration not stated) [PRIMA-1MET] + CCNC(=O)c1noc(-c2cc(C(C)C)c(O)cc2O)c1-c1ccc(CN2CCOCC2)cc1 [Luminespib] (partner 0.01 µM)
Ans. 0.262

Qu. For the molecule COCC1(CO)C(=O)C2CCN1CC2 (configuration not stated) [PRIMA-1MET] + Nc1nc2[nH]cc(CCc3ccc(C(=O)N[C@@H](CCC(=O)O)C(=O)O)cc3)c2c(=O)[nH]1 [Pemetrexed] (partner 0.2 µM) , give its measured relative viability value.
Ans. 0.441

Qu. // Input: COCC1(CO)C(=O)C2CCN1CC2 (configuration not stated) [PRIMA-1MET] + COc1cccc2cc(-c3nc([C@H]4CC[C@H](C(=O)O)CC4)n4ncnc(N)c34)[nH]c12 [OSI-027] (partner 0.5 µM) . Output its relative viability only.
Ans. 0.428

Qu. Supply relative viability value. Item: COCC1(CO)C(=O)C2CCN1CC2 (configuration not stated) [PRIMA-1MET] + O=C(c1cc(Cc2n[nH]c(=O)c3ccccc23)ccc1F)N1CCN(C(=O)C2CC2)CC1 [Olaparib] (partner 8 µM)
Ans. 0.641

Qu. Please supply the value of reported relative viability for the item COCC1(CO)C(=O)C2CCN1CC2 (configuration not stated) [PRIMA-1MET] + Nc1ncn([C@H]2C[C@H](O)[C@@H](CO)O2)c(=O)n1 [Decitabine] (partner 2 µM)
Ans. 0.705

----------
- System: HCC-366
- assay_summary: relative viability (nuclei count vs DMSO), 5 days (fraction); higher = more cells survive
- settings: first compound 0.1 µM
measurement_type: relative viability
# respond with the number and nothing more

See these solved cases before continuing.
- CCN(CC)CCCCNc1ncc2cc(-c3cc(OC)cc(OC)c3)c(NC(=O)NC(C)(C)C)nc2n1 + COc1cc2c(Oc3ccc(NC(=O)C4(C(=O)Nc5ccc(F)cc5)CC4)cc3F)ccnc2cc1OCCCN1CCOCC1 [Foretinib] (partner 0.25 µM): 1.05
- O=c1cc(N2CCOCC2)oc2c(-c3cccc4c3sc3ccccc34)cccc12 + C[C@]1(O)C[C@@H](c2nc(-c3ccc4ccc(-c5ccccc5)nc4c3)c3c(N)nccn32)C1 [Linsitinib] (partner 1 µM): 0.797
- CCN(CC)CCCCNc1ncc2cc(-c3cc(OC)cc(OC)c3)c(NC(=O)NC(C)(C)C)nc2n1 + Nc1ncn([C@H]2C[C@H](O)[C@@H](CO)O2)c(=O)n1 [Decitabine] (partner 2 µM): 0.368

Qu. Assign relative viability to the following record: CCN(CC)CCCCNc1ncc2cc(-c3cc(OC)cc(OC)c3)c(NC(=O)NC(C)(C)C)nc2n1 + C[C@]1(O)C[C@@H](c2nc(-c3ccc4ccc(-c5ccccc5)nc4c3)c3c(N)nccn32)C1 [Linsitinib] (partner 1 µM)
Ans. 0.66

Qu. Answer with reported relative viability of O=c1cc(N2CCOCC2)oc2c(-c3cccc4c3sc3ccccc34)cccc12 + CS(=O)(=O)N1CCN(Cc2cc3nc(-c4cccc5[nH]ncc45)nc(N4CCOCC4)c3s2)CC1 [Pictilisib] (partner 1 µM)
Ans. 0.1
